The reported numbers originate from paper PMC9635925.

target: MRGPRX2-MUT (MRGPRX2 N62S mutation) (Homo sapiens, UniProt Q96LB1, N62S); construct: expressed in transfected cells; assay: Primary HTS, Ca2+ mobilization (fluorescence ratio, B-score) in HEK293-Gα15 cells stably expressing the MRGPRX2 N62S mutation; format: cell-based; conditions: 10 μM compound, MRGPRX2-MUT (N62S) cells, Table 1
Sequence (Q96LB1 whole entry N62S): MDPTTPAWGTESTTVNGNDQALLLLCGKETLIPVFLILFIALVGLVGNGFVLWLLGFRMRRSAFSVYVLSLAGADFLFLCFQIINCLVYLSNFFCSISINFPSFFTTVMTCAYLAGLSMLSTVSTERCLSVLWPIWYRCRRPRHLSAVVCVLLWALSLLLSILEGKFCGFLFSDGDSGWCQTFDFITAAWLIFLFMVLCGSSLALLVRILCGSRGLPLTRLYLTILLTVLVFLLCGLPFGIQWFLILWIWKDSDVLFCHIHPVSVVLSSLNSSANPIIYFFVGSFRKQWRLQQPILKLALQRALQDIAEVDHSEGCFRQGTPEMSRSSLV
Where a name gives a salt, the structure may show the parent alone.
Range-based classes on measured B-scores (MUT): low (below 0.4), moderate (0.4 to below 4), high (4 or more)

MOLECULE | LABEL_CLASS
COc1ccc(CN(CCN(C)C)c2ncccn2)cc1 [Thonzylamine Hydrochloride] | moderate

Into which category would you place CN1CCN(c2cc3c(cc2F)c(=O)c(C(=O)O)cn3-c2ccc(F)cc2)CC1 [Difloxacin Hydrochloride] ? low

Into which category would you place CN1CCC(=C2c3ccccc3CC(=O)c3sccc32)CC1 [Ketotifen Fumarate] ? moderate

Into which category would you place CNCCC(Oc1ccc(C(F)(F)F)cc1)c1ccccc1 (stereo not drawn) [Fluoxetine] ? high

Into which category would you place C[C@H]1COc2c(N3CCN(C)CC3)c(F)cc3c(=O)c(C(=O)O)cn1c23 [Levofloxacin] ? low

Into which category would you place CNCCCC1c2ccccc2C=Cc2ccccc21 [Protriptyline Hydrochloride] ? moderate

Into which category would you place CN(C)CCCN1c2ccccc2CCc2ccccc21 [Imipramine Hydrochloride] ? high

Into which category would you place CN(C)CCCN1c2ccccc2Sc2ccccc21 [Promazine Hydrochloride] ? high

Into which category would you place CN(C)CCC(c1ccc(Br)cc1)c1ccccn1 (stereo not drawn) [Brompheniramine Maleate] ? moderate

Into which category would you place CN1CCN(c2c(F)cc3c(=O)c(C(=O)O)cn4c3c2SCC4)CC1.Cl [Rufloxacin Hydrochloride] ? low

Into which category would you place CO[C@H]1/C=C/O[C@@]2(C)Oc3c(C)c(O)c4c(O)c(c(/C=N/N5CCN(C)CC5)c(O)c4c3C2=O)NC(=O)/C(C)=C\C=C\[C@H](C)[C@H](O)[C@@H](C)[C@@H](O)[C@@H](C)[C@H](OC(C)=O)[C@@H]1C [Rifampin] ? low

Into which category would you place CN1CCN(CC/C=C2/c3ccccc3Sc3ccc(S(=O)(=O)N(C)C)cc32)CC1 [Thiothixene] ? high

Into which category would you place CN(C)CCN1C(=O)c2ccccc2N(C)c2ccccc21 [Dibenzepin] ? low

Into which category would you place CN(C)CCOC(c1ccc(Cl)cc1)c1ccccn1 (stereo not drawn) [Carbinoxamine Maleate] ? moderate

Into which category would you place Cl.NC1CCN(c2c(F)cc3c(=O)c(C(=O)O)cn(C4CC4)c3c2Cl)C1 (stereo not drawn) [Clinafoxacin Hydrochloride] ? moderate
